Target: integrin α4β7, expressed on the RPMI 8866 (human B lymphoid cell line) cell membrane with MAdCAM-1 (Homo sapiens, UniProt P13612+P26010)
Construct: integrin α4β7, expressed on the RPMI 8866 (human B lymphoid cell line) cell membrane; endogenous in cells
Sequence (P13612 34-1032): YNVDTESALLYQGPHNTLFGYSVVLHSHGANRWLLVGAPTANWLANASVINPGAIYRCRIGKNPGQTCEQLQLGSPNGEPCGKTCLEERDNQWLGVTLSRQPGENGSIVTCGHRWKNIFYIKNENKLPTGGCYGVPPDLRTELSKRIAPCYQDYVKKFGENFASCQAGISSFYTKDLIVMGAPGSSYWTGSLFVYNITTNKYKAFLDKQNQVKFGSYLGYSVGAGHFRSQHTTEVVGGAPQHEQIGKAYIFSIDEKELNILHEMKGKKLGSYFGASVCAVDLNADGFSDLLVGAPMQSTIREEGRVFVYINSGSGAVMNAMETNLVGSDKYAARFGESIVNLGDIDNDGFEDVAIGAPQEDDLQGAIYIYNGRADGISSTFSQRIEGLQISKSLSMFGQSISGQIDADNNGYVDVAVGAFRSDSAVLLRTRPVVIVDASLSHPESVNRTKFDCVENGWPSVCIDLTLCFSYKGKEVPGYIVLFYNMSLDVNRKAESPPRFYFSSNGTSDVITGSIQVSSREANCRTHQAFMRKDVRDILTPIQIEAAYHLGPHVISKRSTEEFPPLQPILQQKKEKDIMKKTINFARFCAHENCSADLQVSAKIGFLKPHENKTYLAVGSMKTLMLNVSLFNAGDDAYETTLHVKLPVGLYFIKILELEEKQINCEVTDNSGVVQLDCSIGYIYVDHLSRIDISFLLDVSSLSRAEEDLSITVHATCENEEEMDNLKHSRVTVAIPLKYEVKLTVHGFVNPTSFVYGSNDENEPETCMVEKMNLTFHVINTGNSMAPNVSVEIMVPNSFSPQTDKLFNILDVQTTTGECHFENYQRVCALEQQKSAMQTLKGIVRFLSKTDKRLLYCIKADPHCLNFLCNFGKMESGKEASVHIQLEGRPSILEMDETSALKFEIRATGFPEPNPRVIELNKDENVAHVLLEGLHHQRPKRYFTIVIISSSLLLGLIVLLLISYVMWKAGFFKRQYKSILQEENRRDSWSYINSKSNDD
Sequence (P26010 20-798): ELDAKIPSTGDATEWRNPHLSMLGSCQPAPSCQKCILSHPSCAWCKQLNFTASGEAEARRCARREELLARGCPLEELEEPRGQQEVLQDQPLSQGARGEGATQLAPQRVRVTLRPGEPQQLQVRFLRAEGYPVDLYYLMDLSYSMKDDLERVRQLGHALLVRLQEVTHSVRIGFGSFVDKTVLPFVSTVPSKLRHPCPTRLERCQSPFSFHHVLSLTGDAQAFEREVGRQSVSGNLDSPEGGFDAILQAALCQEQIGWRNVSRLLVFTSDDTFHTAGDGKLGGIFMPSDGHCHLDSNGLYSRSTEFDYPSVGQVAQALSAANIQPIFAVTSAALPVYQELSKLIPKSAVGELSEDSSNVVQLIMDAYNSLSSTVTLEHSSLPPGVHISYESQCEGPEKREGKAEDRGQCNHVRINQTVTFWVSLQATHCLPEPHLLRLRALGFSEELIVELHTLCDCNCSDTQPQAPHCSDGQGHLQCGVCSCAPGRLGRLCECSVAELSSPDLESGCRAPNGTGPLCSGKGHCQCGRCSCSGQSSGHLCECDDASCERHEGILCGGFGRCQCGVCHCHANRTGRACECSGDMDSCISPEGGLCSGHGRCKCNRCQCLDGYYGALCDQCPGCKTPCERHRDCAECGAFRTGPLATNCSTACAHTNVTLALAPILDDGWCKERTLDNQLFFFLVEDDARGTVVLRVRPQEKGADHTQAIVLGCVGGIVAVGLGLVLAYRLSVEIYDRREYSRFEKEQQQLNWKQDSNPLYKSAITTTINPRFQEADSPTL
Assay: RPMI 8866/MAdCAM-1 adhesion assay
Details: RPMI 8866 cell adhesion to MAdCAM-1, 1 mM MnCl2; mean of n experiments
Description: (4) RPMI 8866/MAdCAM-1 Adhesion Assay This assay was used to investigate the interaction of the integrin α4β7, expressed on the RPMI 8866 (human B lymphoid cell line) cell membrane with MAdCAM-1. […]
result.type: IC50 (nM)
Please reply with the bare figure in nM and do not write the unit itself.

- CC(C)C[C@H](NC(=O)c1cccc2c1oc1ccccc12)C(=O)N[C@@H](Cc1ccc(OC(=O)N2CCC(C(N)=O)CC2)cc1)C(=O)O: 126
- Cc1ccccc1OCC(=O)N[C@@H](CC(C)C)C(=O)N[C@@H](Cc1ccc(OC(=O)N2CCC(C(N)=O)CC2)cc1)C(=O)O: 31.6
- CC(C)C[C@H](NC(=O)COc1ccccc1C(C)(C)C)C(=O)N[C@@H](Cc1ccc(OC(=O)N2CCOCC2)cc1)C(=O)O: 251

# ---- query compound ----
Documented IC50 of CC(=O)N1CCN(C(=O)Oc2ccc(C[C@H](NC(=O)[C@H](CC(C)C)NC(=O)COc3ccccc3C(C)(C)C)C(=O)O)cc2)CC1 : 158
